protocol: Single-dose pharmacokinetics of T+Ai pellet implant (80 mg testosterone + 4 mg anastrozole, subcutaneous)
condition_notes: human, in vivo, sc, 4 mg, Measured serum anastrozole, median, 168 h post-dose
reported_property: concentration at 168 h (ng/mL)
Give bare numbers, in ng/mL.

Given item `CC(C)(C#N)c1cc(Cn2cncn2)cc(C(C)(C)C#N)c1` , the value recorded as its concentration at 168 h is 3.58

###

protocol: Single-dose pharmacokinetics of T+Ai pellet implant (80 mg testosterone + 4 mg anastrozole, subcutaneous)
condition_notes: human, in vivo, sc, 4 mg, Measured serum anastrozole, median, 1008 h post-dose
Description: The premenopausal women were aged between 35 and 55 years of age with a BMI range of 20-30 kg/m^2. […] The implant was intended to be left in situ and was expected to be almost completely absorbed within three months following insertion. […] (NB: the sample collection time point at 6 hours post-dose was added for the third and subsequent subject and so serum measurements were not determined for the first two subjects as noted below). […]
reported_property: concentration at 1008 h (ng/mL)
Numbers only, in ng/mL.

Given item `CC(C)(C#N)c1cc(Cn2cncn2)cc(C(C)(C)C#N)c1` , the value recorded as its concentration at 1008 h is 0.4

Source of measurements: patent US20260315494A1
